meta.source: patent US9409876B2

# method notes: Pharmacokinetics after oral gavage
# Format: in vivo, rat
# reported conditions: Sprague-Dawley, rat, plasma, po, 10 mg/kg, oral administration, 60 min, Rat2; read-out: plasma level
measured property: concentration at 60 min (ng/mL)
// units = ng/mL; emit number, no label

Ask | For the molecule shown here, COc1ccccc1CN(C(=O)CC(C)C)[C@@H](C(=O)NC[C@H]1CCCO1)c1ccc(C)cc1 [Compound 8 (R,R)] , give the reported concentration at 60 min.
Reply | 2.1

====

# method notes: Pharmacokinetics after oral gavage
# Type: in vivo, rat
# reported conditions: Sprague-Dawley, rat, plasma, po, 10 mg/kg, oral administration, 120 min, Rat3; read-out: plasma level
measured property: concentration at 120 min (ng/mL)
// units = ng/mL; emit number, no label

Ask | For the molecule shown here, COc1ccccc1CN(C(=O)CC(C)C)[C@@H](C(=O)NC[C@H]1CCCO1)c1ccc(C)cc1 [Compound 8 (R,R)] , give the reported concentration at 120 min.
Reply | 1

====

# method notes: Pharmacokinetics after oral gavage
# Assay type: in vivo, rat
# reported conditions: Sprague-Dawley, rat, plasma, po, 10 mg/kg, 10 mg/kg oral gavage, Rat 3
measured property: Tmax (min)
// units = min; emit number, no label

Ask | For the compound shown here, COc1ccccc1CN(C(=O)CC(C)C)[C@@H](C(=O)NC[C@H]1CCCO1)c1ccc(C)cc1 [Compound 8 (R,R)] , give the reported Tmax.
Reply | 5

====

# method notes: Pharmacokinetics after IV administration, brain penetration assessment
# Format: in vivo, rat
# reported conditions: Sprague-Dawley, rat, plasma, iv, 7.5 mg/kg, Time 240, R1, read-out: Plasma level
measured property: concentration at 240 min (ng/mL)
// units = ng/mL; emit number, no label

Ask | For the compound shown here, COc1ccccc1CN(C(=O)CC(C)C)[C@@H](C(=O)NC[C@H]1CCCO1)c1ccc(C)cc1 [Compound 8 (R,R)] , give the reported concentration at 240 min.
Reply | 4.05

====

# method notes: Pharmacokinetics after oral gavage
# Format: in vivo, rat
# reported conditions: SD (Sprague-Dawley), rat, plasma, po, 10 mg/kg, oral administration
measured property: Cmax

Ask | For the compound shown here, COc1ccccc1CN(C(=O)CC(C)C)[C@@H](C(=O)NC[C@H]1CCCO1)c1ccc(C)cc1 [Compound 8 (R,R)] , give the reported Cmax.
Reply | ~3 ng/mL

====

# method notes: Pharmacokinetics after IV administration, brain penetration assessment
# Assay type: in vivo, rat
# reported conditions: Sprague-Dawley, rat, plasma, iv, 7.5 mg/kg, Time 15, R1, read-out: Plasma level
measured property: concentration at 15 min (ng/mL)
// units = ng/mL; emit number, no label

Ask | For the compound shown here, COc1ccccc1CN(C(=O)CC(C)C)[C@@H](C(=O)NC[C@H]1CCCO1)c1ccc(C)cc1 [Compound 8 (R,R)] , give the reported concentration at 15 min.
Reply | 1600

====

# method notes: Pharmacokinetics after oral gavage
# Assay type: in vivo, rat
# reported conditions: Sprague-Dawley (SD), rat, plasma, po, 10 mg/kg, oral administration, 15 min, Rat2; read-out: plasma level
measured property: concentration at 15 min (ng/mL)
// units = ng/mL; emit number, no label

Ask | For the compound shown here, COc1ccccc1CN(C(=O)CC(C)C)[C@@H](C(=O)NC[C@H]1CCCO1)c1ccc(C)cc1 [Compound 8 (R,R)] , give the reported concentration at 15 min.
Reply | 3

====

# method notes: Pharmacokinetics after IV administration, brain penetration assessment
# Format: in vivo, rat
# reported conditions: Sprague-Dawley, rat, brain, iv, 7.5 mg/kg, Time 60, R3, read-out: Brain level
measured property: concentration at 60 min (ng/g)
// units = ng/g; emit number, no label

Ask | For the compound shown here, COc1ccccc1CN(C(=O)CC(C)C)[C@@H](C(=O)NC[C@H]1CCCO1)c1ccc(C)cc1 [Compound 8 (R,R)] , give the reported concentration at 60 min.
Reply | 49.5

====

# method notes: Pharmacokinetics after IV administration, brain penetration assessment
# Format: in vivo, rat
# reported conditions: Sprague-Dawley (SD), rat, plasma, iv, 7.5 mg/kg, Plasma, read-out: Clast
measured property: concentration at 240 min (ng/mL)
// units = ng/mL; emit number, no label

Ask | For the compound shown here, COc1ccccc1CN(C(=O)CC(C)C)[C@@H](C(=O)NC[C@H]1CCCO1)c1ccc(C)cc1 [Compound 8 (R,R)] , give the reported concentration at 240 min.
Reply | 4.2

====

# method notes: Pharmacokinetics after oral gavage
# Format: in vivo, rat
# reported conditions: Sprague-Dawley (SD), rat, plasma, po, 10 mg/kg, oral administration, 30 min, Rat2; read-out: plasma level
measured property: concentration at 30 min (ng/mL)
// units = ng/mL; emit number, no label

Ask | For the compound shown here, COc1ccccc1CN(C(=O)CC(C)C)[C@@H](C(=O)NC[C@H]1CCCO1)c1ccc(C)cc1 [Compound 8 (R,R)] , give the reported concentration at 30 min.
Reply | 2.4

====

# method notes: Pharmacokinetics after IV administration, brain penetration assessment
# Assay type: in vivo, rat
# reported conditions: Sprague-Dawley (SD), rat, brain, iv, 7.5 mg/kg, Brain, read-out: Clast
measured property: concentration at 60 min (ng/mL)
// units = ng/mL; emit number, no label

Ask | For the compound shown here, COc1ccccc1CN(C(=O)CC(C)C)[C@@H](C(=O)NC[C@H]1CCCO1)c1ccc(C)cc1 [Compound 8 (R,R)] , give the reported concentration at 60 min.
Reply | 48.8

====

# method notes: Pharmacokinetics after IV administration, brain penetration assessment
# Assay type: in vivo, rat
# reported conditions: Sprague-Dawley, rat, brain; IV 7.5 mg/kg, average on the AUC ratio
measured property: Kp

Ask | For the compound shown here, COc1ccccc1CN(C(=O)CC(C)C)[C@@H](C(=O)NC[C@H]1CCCO1)c1ccc(C)cc1 [Compound 8 (R,R)] , give the reported Kp.
Reply | ~0.43

====

# method notes: Pharmacokinetics after IV administration, brain penetration assessment
# Type: in vivo, rat
# reported conditions: Sprague-Dawley, rat, plasma, iv, 7.5 mg/kg, Time 240, R3, read-out: Plasma level
measured property: concentration at 240 min (ng/mL)
// units = ng/mL; emit number, no label

Ask | For the compound shown here, COc1ccccc1CN(C(=O)CC(C)C)[C@@H](C(=O)NC[C@H]1CCCO1)c1ccc(C)cc1 [Compound 8 (R,R)] , give the reported concentration at 240 min.
Reply | 5.2

====

# method notes: Pharmacokinetics after IV administration, brain penetration assessment
# Format: in vivo, rat
# reported conditions: Sprague-Dawley, rat, brain, iv, 7.5 mg/kg, Time 60, R1, read-out: Brain level
measured property: concentration at 60 min (ng/g)
// units = ng/g; emit number, no label

Ask | For the compound shown here, COc1ccccc1CN(C(=O)CC(C)C)[C@@H](C(=O)NC[C@H]1CCCO1)c1ccc(C)cc1 [Compound 8 (R,R)] , give the reported concentration at 60 min.
Reply | 62.1
